Each record here notes measured TGI.
System: MCF7 breast
protocol: NCI tumour cell line growth inhibition, 48 h

// solved cases for TGI follow
# compound, TGI
rows = [
    ("COC(=O)[C@@]12CN(C)[C@@H](C(C)(C)C)N1C(=O)OC2c1ccccc1 (some centres not stated)", "> 100 µM"),
    ("CC1(C)CC[C@]2(C(=O)Nc3ccccn3)CC[C@]3(C)C(=CC[C@@H]4[C@@]5(C)C/C(=C/c6ccncc6)C(=O)C(C)(C)[C@@H]5CC[C@]43C)[C@@H]2C1", "15.3 µM"),
    ("O=S(=O)(c1ccccc1)n1c(C(O)c2ccccc2)cc2ccccc21 (configuration not stated)", "40.9 µM"),
]

INPUT: Record request: TGI value, item `Cc1cccc2nc3cccc(C(=O)NCCC[N+](C)(CCCNC(=O)c4cccc5nc6cccc(C)c6nc45)Cc4ccc([N+](=O)[O-])n4C)c3nc12`
OUTPUT: > 100 µM

INPUT: Record request: TGI value, item `O=c1oc2ccc(Cl)cc2c2ccccc12`
OUTPUT: > 100 µM

INPUT: Record request: TGI value, item `c1ccc(CC(Cc2ccccc2)C2=NCCCN2)cc1`
OUTPUT: > 100 µM

INPUT: Record request: TGI value, item `CCC(=O)OC1=C(c2ccccc2)Sc2ccc(Cl)cc2-n2cccc21`
OUTPUT: > 10 µM

INPUT: Record request: TGI value, item `COc1ccc(/C=C2\COc3ccc(O)c(O)c3C2=O)cc1`
OUTPUT: > 100 µM

INPUT: Record request: TGI value, item `Cc1cc(Cl)ccc1OCc1nn2c(CCCCc3nnc4sc(COc5ccc(Cl)cc5C)nn34)nnc2s1`
OUTPUT: > 73.2 µM

INPUT: Record request: TGI value, item c1ccc2nc(N/N=C3\CCCCC3C3CCCCC3)ccc2c1 (configuration not stated)
OUTPUT: 11.7 µM

INPUT: Record request: TGI value, item COC(=O)/C=C\[C@H]1[C@H](C)N1S(=O)(=O)c1ccc(C)cc1 (some centres not stated)
OUTPUT: > 100 µM

INPUT: Record request: TGI value, item `CCOC(CNc1nn2c(C)nnc2s1)OCC`
OUTPUT: > 100 µM

INPUT: Record request: TGI value, item `Cc1cccc2c(NCCCN(C)C)c3c([N+](=O)[O-])ccc(C)c3nc12`
OUTPUT: 0.173 µM

INPUT: Record request: TGI value, item CC1CC2(OC2C)C(=O)OC2CCN(C)C/C=C(/COC(=O)C1(C)O)C2=O (configuration not stated)
OUTPUT: > 100 µM

INPUT: Record request: TGI value, item `CN(C)c1ccc(/C=C2\C[C@H]3[C@@H]4CC=C5C[C@@H](O)CC[C@]5(C)[C@H]4CC[C@]3(C)C2=O)cc1`
OUTPUT: > 100 µM

INPUT: Record request: TGI value, item Nc1ncnc2c1ncn2C1CC(O)C(CO)O1 (configuration not stated)
OUTPUT: > 100 µM

INPUT: Record request: TGI value, item C[C@]12CCC(N3CCCC3)CC1=CC[C@@H]1[C@@H]2CC[C@]2(C)C(O)[C@H](n3ccnc3)C[C@@H]12 (some centres not stated)
OUTPUT: > 100 µM
